The measurements presented in this section are drawn from ChEMBL document CHEMBL1152993.

# assayName: Cmax in human at 12 mg/kg administered as single oral dose
# Type: ADME, organism-based
# Set-up: dose 12 mg/kg, route oral
# measurementConditions: in vivo

testSmiles: CC[C@H]1OC(=O)[C@H](C)C(=O)[C@H](C)[C@@H](O[C@@H]2O[C@H](C)C[C@H](N(C)C)[C@H]2O)[C@](C)(OC)C[C@@H](C)C(=O)[C@H](C)[C@H]2N(CCCCn3cnc(-c4cccnc4)c3)C(=O)O[C@]12C
Cmax (µg/mL): 1.9

* * *

// values below are reported pIC50
# System: Plasmodium falciparum
# assayName: Antiplasmodial activity after 72 hrs against Plasmodium falciparum 3D7 as Malstat LDH activity
# Type: functional, organism-based
# measurementConditions: 3D7, 72 h
pIC50: −log10 of the molar value.

testSmiles: CC[C@H]1OC(=O)[C@H](C)C(=O)[C@H](C)[C@@H](O[C@@H]2O[C@H](C)C[C@H](N(C)C)[C@H]2O)[C@](C)(OC)C[C@@H](C)C(=O)[C@H](C)[C@H]2N(CCCCn3cnc(-c4cccnc4)c3)C(=O)O[C@]12C
system: Plasmodium falciparum
pIC50: 5.98
--
testSmiles: CC[C@H]1OC(=O)[C@H](C)[C@@H](O[C@H]2C[C@@](C)(OC)[C@@H](O)[C@H](C)O2)[C@H](C)[C@@H](O[C@@H]2O[C@H](C)C[C@H](N(C)C)[C@H]2O)[C@](C)(O)C[C@@H](C)CN(C)[C@H](C)[C@@H](O)[C@]1(C)O
system: Plasmodium falciparum
pIC50: 5.34
--
testSmiles: C[C@H]1c2cccc(O)c2C(=O)C2=C(O)[C@]3(O)C(=O)C(C(N)=O)=C(O)[C@@H](N(C)C)[C@@H]3[C@@H](O)[C@@H]21.O
system: Plasmodium falciparum
pIC50: 5.83

* * *

# Test system: Plasmodium falciparum
# assayName: Antiplasmodial activity after 48 hrs against Plasmodium falciparum 3D7 as Malstat LDH activity
# Format: functional, organism-based
# measurementConditions: 3D7, 48 h
pIC50: −log10 of the molar value.
// values below are reported pIC50

compound: CC[C@H]1OC(=O)[C@H](C)C(=O)[C@H](C)[C@@H](O[C@@H]2O[C@H](C)C[C@H](N(C)C)[C@H]2O)[C@](C)(OC)C[C@@H](C)C(=O)[C@H](C)[C@H]2N(CCCCn3cnc(-c4cccnc4)c3)C(=O)O[C@]12C [TELITHROMYCIN]
system: Plasmodium falciparum
pIC50: 5.09
--
compound: CC[C@H]1OC(=O)[C@H](C)[C@@H](O[C@H]2C[C@@](C)(OC)[C@@H](O)[C@H](C)O2)[C@H](C)[C@@H](O[C@@H]2O[C@H](C)C[C@H](N(C)C)[C@H]2O)[C@](C)(O)C[C@@H](C)CN(C)[C@H](C)[C@@H](O)[C@]1(C)O [AZITHROMYCIN]
system: Plasmodium falciparum
pIC50: 5.04
--
compound: C[C@H]1c2cccc(O)c2C(=O)C2=C(O)[C@]3(O)C(=O)C(C(N)=O)=C(O)[C@@H](N(C)C)[C@@H]3[C@@H](O)[C@@H]21.O [DOXYCYCLINE]
system: Plasmodium falciparum
pIC50: 5.27
